Origin of values: PubChem BioAssay (NCI)

Tested on: HCC-2998 colon
Assay: NCI tumour cell line growth inhibition, 48 h
Listed molecules paired with reported TGI
assay metric: TGI

[[record]]
molecule = "Cn1cc(CO)c2c1C(=O)C=C(N1CC1)C2=O"
assay_metric = "TGI"
data_value = "0.049 µM"

[[record]]
molecule = "O=c1[nH]c2c(nc1NC13CC4CC(CC(C4)C1)C3)c(=O)oc1ccccc12"
assay_metric = "TGI"
data_value = "> 100 µM"

[[record]]
molecule = "CC(C)(C)[Si](OC1CC(n2cnc3c(N)ncnc32)OC1CO)(c1ccccc1)c1ccccc1 (stereo unspecified)"
assay_metric = "TGI"
data_value = "> 100 µM"

[[record]]
molecule = "Cc1cc(I)cc(CN(C)CCCN2CCCCCCC2)c1O"
assay_metric = "TGI"
data_value = "36.8 µM"

[[record]]
molecule = "O/N=C/C1C(OCc2ccccc2)C(OCc2ccccc2)C(OCc2ccccc2)CN1Cc1ccccc1 (stereo unspecified)"
assay_metric = "TGI"
data_value = "> 100 µM"

[[record]]
molecule = "CC(=O)Nc1ccc(N2C(=O)/C(=C\\c3cccc(Oc4ccccc4)c3)S(=O)(=O)C2c2ccccc2)cc1 (stereo unspecified)"
assay_metric = "TGI"
data_value = "> 100 µM"

[[record]]
molecule = "O=C1C2CC=CCC2C(=O)N1n1c(Cc2ccc(Cl)cc2)n[nH]c1=O (stereo unspecified)"
assay_metric = "TGI"
data_value = "> 100 µM"

[[record]]
molecule = "Oc1c(C2=NNC(c3ccc(Cl)cc3Cl)C2)ccc2ccccc12 (stereo unspecified)"
assay_metric = "TGI"
data_value = "> 100 µM"

[[record]]
molecule = "Cc1cc(N)c(C)c2c1[nH]c1ccc(O)cc12"
assay_metric = "TGI"
data_value = "> 100 µM"

[[record]]
molecule = "CCCCC1=NNC(=O)C1"
assay_metric = "TGI"
data_value = "> 100 µM"

[[record]]
molecule = "COc1ccc2c3c([nH]c2c1[N+](=O)[O-])C(C)=NCC3"
assay_metric = "TGI"
data_value = "> 100 µM"

